- Tested on: oilseed rape (Brassica napus)
- EXPERIMENTAL_DETAILS: Test C pre-/postemergence greenhouse herbicide test
- Format: in vivo
- SETTINGS: Oilseed Rape; Preemergence; 31 g ai/ha
- Excerpt: […]
Tag: 1 if measured Plant response rating is not below 50, -1 if it is.

### Prompt API: above_or_equal(metric=Plant response rating, cutoff=50) for item CCOc1cc(=O)n(-c2ccc(F)cc2)nc1C(O)c1ccnc(C(F)(F)F)c1 (stereo not drawn) [Compound 23]
### Response 1

### Prompt Can you handle COc1cc(=O)n(-c2ccc(C(F)(F)F)cc2)nc1Cc1ccnc(C(F)(F)F)c1 [Compound 16] next?
### Response 1

### Prompt Can you handle Cc1cc(=O)n(-c2ccc(C(F)(F)F)cc2)nc1Cc1ccnc(C(F)(F)F)c1 [Compound 2] next?
### Response 1

### Prompt Can you handle Cc1cc(=O)n(-c2ccc(F)cc2)nc1Cc1ccnc(C(F)(F)F)c1 [Compound 1] next?
### Response -1
